- Target Entity: Dual specificity tyrosine-phosphorylation-regulated kinase 1A (Homo sapiens)
pIC50: −log10 of the molar value.
Measure: pIC50

- Structure As Smiles: "O=C1NC(NC2CCCCC2)=N/C1=C\\c1ccc2[nH]ncc2c1"
  pIC50: 6.58

A = Cn1cc2cc(/C=C3\N=C(NC4CCCCC4)NC3=O)ccc2n1
B = Cn1cc2cc(/C=C3\N=C(NC45CC6CC(CC(C6)C4)C5)NC3=O)ccc2n1
Input: Looking only at measured pIC50, which entry is lower, A or B ? I would appreciate it if you answered with the label of your choice.
Output: A
(A: 6.24, B: 8.70)

1 = O=C1NC(NC23CC4CC(CC(C4)C2)C3)=N/C1=C\c1ccc2ncoc2c1
2 = Cn1ncc2cc(/C=C3\N=C(NC4CCCCC4)NC3=O)ccc21
3 = O=C1NC(NC23CC4CC(CC(C4)C2)C3)=N/C1=C\c1ccc2c(c1)CCO2
Input: Please list these molecules in decreasing order of pIC50. Give your ranking as a list of the labels in the requested order.
Output: 1, 3, 2
(1: 9.00, 3: 7.30, 2: 6.85)

1 = O=C1NC(NC2CCCCCC2)=N/C1=C\c1ccc2[nH]ncc2c1
2 = Cn1cnc2ccc(/C=C3\N=C(NC4CCCCC4)NC3=O)cc21
Input: Looking only at measured pIC50, which entry is lower, 1 or 2 ? I would appreciate it if you answered with the label of your choice.
Output: 2
(2: 7.03, 1: 7.48)

A = O=C1NC(NC23CC4CC(CC(C4)C2)C3)=N/C1=C\c1ccc2c(c1)OCO2
B = O=C1NC(NC2CCCCCC2)=N/C1=C\c1ccc2[nH]cnc2c1
C = O=C1NC(NC23CC4CC(CC(C4)C2)C3)=N/C1=C\c1ccc2scnc2c1
D = Cn1ncc2cc(/C=C3\N=C(NC4CCCCCC4)NC3=O)ccc21
Input: Please list these molecules in decreasing order of pIC50. Give your ranking as a list of the labels in the requested order.
Output: A, D, B, C
(A: 8.70, D: 7.43, B: 7.01, C: 5.47)

A = Cn1cnc2ccc(/C=C3\N=C(NC4CCCCCC4)NC3=O)cc21
B = O=C1NC(NC23CC4CC(CC(C4)C2)C3)=N/C1=C\c1ccc2[nH]cnc2c1
Input: For this pair, A and B , which shows a numerically higher pIC50? I would appreciate it if you answered with the label of your choice.
Output: B

A = O=C1NC(NC2CCCCC2)=N/C1=C\c1ccc2c(c1)OCO2
B = O=C1NC(NC2CCCCCC2)=N/C1=C\c1ccc2c(c1)OCO2
Input: For this pair, A and B , which shows a numerically higher pIC50? I would appreciate it if you answered with the label of your choice.
Output: B
(B: 7.33, A: 7.13)
